- Test system: dorsal skin (erythema and scaling)
- Design: species or system New Zealand white rabbit (male)
- condition: rabbit, in vivo
measured-property: Rating scaling

stdin: // Rating scaling lookup, key: CC1=C(/C=C/C(C)=C/C=C/C(C)=C\C(=O)Nc2nnn[nH]2)C(C)(C)CCC1 [13-Z-N--(tetrazol-5-yl)-retinamide, 13-Z-N-(tetrazol-5-yl)-retinamide]
stdout: none

stdin: // Rating scaling lookup, key: CC1=C(/C=C/C(C)=C/C=C/C(C)=C/C(=O)Nc2nnn[nH]2)C(C)(C)CCC1 [all-E-N--(tetrazol-5-yl)-retinamide, all-E-N-(tetrazol-5-yl)-retinamide]
stdout: none

* * *

- Tested on: dorsal skin (erythema and scaling)
- Design: species or system New Zealand white rabbit (male)
- condition: rabbit, in vivo
Give measured mean scaling for each item. Keep answers brief.
Give the figure only, with no unit attached.

stdin: // mean scaling lookup, key: CC1=C(/C=C/C(C)=C/C=C/C(C)=C/C(=O)O)C(C)(C)CCC1 [all-E-retinoic acid, reference compound]
stdout: 1.9

stdin: // mean scaling lookup, key: CC1=C(/C=C/C(C)=C/C=C/C(C)=C\C(=O)O)C(C)(C)CCC1 [13-Z-retinoic acid, reference compound]
stdout: 3.0

stdin: // mean scaling lookup, key: CC1=C(/C=C/C(C)=C/C=C/C(C)=C/C(=O)Nc2nnn[nH]2)C(C)(C)CCC1 [all-E-N--(tetrazol-5-yl)-retinamide, all-E-N-(tetrazol-5-yl)-retinamide]
stdout: 0

stdin: // mean scaling lookup, key: CC1=C(/C=C/C(C)=C/C=C/C(C)=C\C(=O)Nc2nnn[nH]2)C(C)(C)CCC1 [13-Z-N--(tetrazol-5-yl)-retinamide, 13-Z-N-(tetrazol-5-yl)-retinamide]
stdout: 0.1

* * *

- System: dorsal skin (erythema and scaling)
- Set-up: species or system New Zealand white rabbit (male)
- condition: rabbit, in vivo
measured-property: Rating erythema

stdin: // Rating erythema lookup, key: CC1=C(/C=C/C(C)=C/C=C/C(C)=C/C(=O)Nc2nnn[nH]2)C(C)(C)CCC1 [all-E-N--(tetrazol-5-yl)-retinamide, all-E-N-(tetrazol-5-yl)-retinamide]
stdout: mild

stdin: // Rating erythema lookup, key: CC1=C(/C=C/C(C)=C/C=C/C(C)=C\C(=O)Nc2nnn[nH]2)C(C)(C)CCC1 [13-Z-N--(tetrazol-5-yl)-retinamide, 13-Z-N-(tetrazol-5-yl)-retinamide]
stdout: mild

* * *

- Tested on: dorsal skin (erythema and scaling)
- Set-up: species or system New Zealand white rabbit (male)
- condition: rabbit, in vivo
measured-property: mean erythema
Give the figure only, with no unit attached.

stdin: // mean erythema lookup, key: CC1=C(/C=C/C(C)=C/C=C/C(C)=C/C(=O)Nc2nnn[nH]2)C(C)(C)CCC1 [all-E-N--(tetrazol-5-yl)-retinamide, all-E-N-(tetrazol-5-yl)-retinamide]
stdout: 0.8

stdin: // mean erythema lookup, key: CC1=C(/C=C/C(C)=C/C=C/C(C)=C\C(=O)O)C(C)(C)CCC1 [13-Z-retinoic acid, reference compound]
stdout: 3.0

stdin: // mean erythema lookup, key: CC1=C(/C=C/C(C)=C/C=C/C(C)=C\C(=O)Nc2nnn[nH]2)C(C)(C)CCC1 [13-Z-N--(tetrazol-5-yl)-retinamide, 13-Z-N-(tetrazol-5-yl)-retinamide]
stdout: 0.5

stdin: // mean erythema lookup, key: CC1=C(/C=C/C(C)=C/C=C/C(C)=C/C(=O)O)C(C)(C)CCC1 [all-E-retinoic acid, reference compound]
stdout: 2.3

Reference source for all entries: patent US4459404A
